Reference source for all entries: patent US6362181B1

Test system: S. aureus 29213
Please assign rule not met whenever MIC is at or above 2 µg/mL, and rule met whenever it is below.

Check if MIC falls below 2 µg/mL for `O=C1c2cccc3c(Br)ccc(c23)C(=O)N1O` . rule not met

Check if MIC falls below 2 µg/mL for `COc1cc2c3c(cccc3c1N1CCCCC1)C(=O)N(O)C2=O` . rule met

Check if MIC falls below 2 µg/mL for `O=C1c2cccc3c(N4CCCC4)ccc(c23)C(=O)N1O` . rule met

Check if MIC falls below 2 µg/mL for `O=C1c2cccc3c(N4CCCC4)c(F)cc(c23)C(=O)N1O` . rule met

Check if MIC falls below 2 µg/mL for `O=C1c2cccc3c(N4CCOCC4)c([N+](=O)[O-])cc(c23)C(=O)N1O` . rule not met

Check if MIC falls below 2 µg/mL for `COc1cc2c3c(cccc3c1Br)C(=O)N(O)C2=O` . rule not met

Check if MIC falls below 2 µg/mL for `O=C1c2cccc3c4c(cc(c23)C(=O)N1O)OCOC4` . rule met

Check if MIC falls below 2 µg/mL for `CC(=O)OCCOc1cc2c3c(cccc3c1)C(=O)N(O)C2=O` . rule not met

Check if MIC falls below 2 µg/mL for `Cc1cc2c3c(cccc3c1)C(=O)N(O)C2=O` . rule not met

Check if MIC falls below 2 µg/mL for `Nc1ccc2c3c(cccc13)C(=O)N(O)C2=O` . rule not met

Check if MIC falls below 2 µg/mL for `CC(=O)Nc1cc2c3c(cccc3c1N1CCCC1)C(=O)N(O)C2=O` . rule not met

Check if MIC falls below 2 µg/mL for `O=C1c2cc([N+](=O)[O-])cc3c(N4CCCC4)c([N+](=O)[O-])cc(c23)C(=O)N1O` . rule not met

Check if MIC falls below 2 µg/mL for `COc1cc2c3c(cccc3c1)C(=O)N(O)C2=O` . rule not met

Check if MIC falls below 2 µg/mL for CN(C)CCN1C(=O)c2cccc3cc([N+](=O)[O-])cc(c23)C1=O [Mitonafide, mitonafide, reference compound] . rule not met

Check if MIC falls below 2 µg/mL for `Cc1cc2c3c(cccc3c1Br)C(=O)N(O)C2=O` . rule not met

Check if MIC falls below 2 µg/mL for `N#Cc1cc2c3c(cccc3c1N1CCCC1)C(=O)N(O)C2=O` . rule not met
